Data provenance: paper PMC8298264

Test system: human HL60 cells
Assay: SWATH-MS proteomics, differential protein representation, akirin2 KO vs WT HL60 cells
Format: cell-based
Settings: SWATH-MS, akirin2 KO vs WT HL60 cells; sheet "Under-represented in KO"
quantity_kind: Log (Fold Change)

molecule | quantity_kind | observed_measurement
sp¦P50213¦IDH3A_HUMAN (protein, UniProt P50213 28-366, looked up) Isocitrate dehydrogenase …: TGGVQTVTLIPGDGIGPEISAAVMKIFDAAKAPIQWEERNVTAIQGPGGKWMIPSEAKESMDKNKMGLKGPLKTPIAAGHPSMNLLLRKTFDLYANVRPCVSIEGYKTPYTDVNIVTIRENTEGEYSGIEHVIVDGVVQSIKLITEGASKRIAEFAFEYARNNHRSNVTAVHKANIMRMSDGLFLQKCREVAESCKDIKFNEMYLDTVCLNMVQDPSQFDVLVMPNLYGDILSDLCAGLIGGLGVTPSGNIGANGVAIFESVHGTAPDIAGKDMANPTALLLSAVMMLRHMGLFDHAARIEAACFATIKDGKSLTKDLGGNAKCSDFTEEICRRVKDLD | Log (Fold Change) | -0.1104
sp¦Q9BTE7¦DCNL5_HUMAN (protein, UniProt Q9BTE7 1-237, looked up) DCN1-like protein 5: MPVKKKRKSPGVAAAVAEDGGLKKCKISSYCRSQPPARLISGEEHFSSKKCLAWFYEYAGPDEVVGPEGMEKFCEDIGVEPENIIMLVLAWKLEAESMGFFTKEEWLKGMTSLQCDCTEKLQNKFDFLRSQLNDISSFKNIYRYAFDFARDKDQRSLDIDTAKSMLALLLGRTWPLFSVFYQYLEQSKYRVMNKDQWYNVLEFSRTVHADLSNYDEDGAWPVLLDEFVEWQKVRQTS | Log (Fold Change) | -0.1009
sp¦Q6NVY1¦HIBCH_HUMAN (protein, UniProt Q6NVY1 33-386, looked up) 3-hydroxyisobutyryl-CoA …: DAAEEVLLEKKGCTGVITLNRPKFLNALTLNMIRQIYPQLKKWEQDPETFLIIIKGAGGKAFCAGGDIRVISEAEKAKQKIAPVFFREEYMLNNAVGSCQKPYVALIHGITMGGGVGLSVHGQFRVATEKCLFAMPETAIGLFPDVGGGYFLPRLQGKLGYFLALTGFRLKGRDVYRAGIATHFVDSEKLAMLEEDLLALKSPSKENIASVLENYHTESKIDRDKSFILEEHMDKINSCFSANTVEEIIENLQQDGSSFALEQLKVINKMSPTSLKITLRQLMEGSSKTLQEVLTMEYRLSQACMRGHDFHEGVRAVLIDKDQSPKWKPADLKEVTEEDLNNHFKSLGSSDLKF | Log (Fold Change) | -0.1147
sp¦P13804¦ETFA_HUMAN (protein, UniProt P13804 20-333, looked up) Electron transfer …: QSTLVIAEHANDSLAPITLNTITAATRLGGEVSCLVAGTKCDKVAQDLCKVAGIAKVLVAQHDVYKGLLPEELTPLILATQKQFNYTHICAGASAFGKNLLPRVAAKLEVAPISDIIAIKSPDTFVRTIYAGNALCTVKCDEKVKVFSVRGTSFDAAATSGGSASSEKASSTSPVEISEWLDQKLTKSDRPELTGAKVVVSGGRGLKSGENFKLLYDLADQLHAAVGASRAAVDAGFVPNDMQVGQTGKIVAPELYIAVGISGAIQHLAGMKDSKTIVAINKDPEAPIFQVADYGIVADLFKVVPEMTEILKKK | Log (Fold Change) | -0.1173
sp¦P18859¦ATP5J_HUMAN (protein, UniProt P18859 33-108, looked up) ATP synthase peripheral stalk …: NKELDPIQKLFVDKIREYKSKRQTSGGPVDASSEYQQELERELFKLKQMFGNADMNTFPTFKFEDPKFEVIEKPQA | Log (Fold Change) | -0.1231
sp¦P22087¦FBRL_HUMAN (protein, UniProt P22087 1-321, looked up) rRNA 2'-O-methyltransferase …: MKPGFSPRGGGFGGRGGFGDRGGRGGRGGFGGGRGRGGGFRGRGRGGGGGGGGGGGGGRGGGGFHSGGNRGRGRGGKRGNQSGKNVMVEPHRHEGVFICRGKEDALVTKNLVPGESVYGEKRVSISEGDDKIEYRAWNPFRSKLAAAILGGVDQIHIKPGAKVLYLGAASGTTVSHVSDIVGPDGLVYAVEFSHRSGRDLINLAKKRTNIIPVIEDARHPHKYRMLIAMVDVIFADVAQPDQTRIVALNAHTFLRNGGHFVISIKANCIDSTASAEAVFASEVKKMQQENMKPQEQLTLEPYERDHAVVVGVYRPPPKVKN | Log (Fold Change) | -0.1142
sp¦P30044¦PRDX5_HUMAN (protein, UniProt P30044 53-214, looked up) Peroxiredoxin-5, mitochondrial: MAPIKVGDAIPAVEVFEGEPGNKVNLAELFKGKKGVLFGVPGAFTPGCSKTHLPGFVEQAEALKAKGVQVVACLSVNDAFVTGEWGRAHKAEGKVRLLADPTGAFGKETDLLLDDSLVSIFGNRRLKRFSMVVQDGIVKALNVEPDGTGLTCSLAPNIISQL | Log (Fold Change) | -0.1169
sp¦Q9NPJ3¦ACO13_HUMAN (protein, UniProt Q9NPJ3 1-140, looked up) Acyl-coenzyme A thioesterase …: MTSMTQSLREVIKAMTKARNFERVLGKITLVSAAPGKVICEMKVEEEHTNAIGTLHGGLTATLVDNISTMALLCTERGAPGVSVDMNITYMSPAKLGEDIVITAHVLKQGKTLAFTSVDLTNKATGKLIAQGRHTKHLGN | Log (Fold Change) | -0.1131
sp¦Q86W42¦THOC6_HUMAN (protein, UniProt Q86W42 1-341, looked up) THO complex subunit 6: MERAVPLAVPLGQTEVFQALQRLHMTIFSQSVSPCGKFLAAGNNYGQIAIFSLSSALSSEAKEESKKPVVTFQAHDGPVYSMVSTDRHLLSAGDGEVKAWLWAEMLKKGCKELWRRQPPYRTSLEVPEINALLLVPKENSLILAGGDCQLHTMDLETGTFTRVLRGHTDYIHCLALRERSPEVLSGGEDGAVRLWDLRTAKEVQTIEVYKHEECSRPHNGRWIGCLATDSDWMVCGGGPALTLWHLRSSTPTTIFPIRAPQKHVTFYQDLILSAGQGRCVNQWQLSGELKAQVPGSSPGLLSLSLNQQPAAPECKVLTAAGNSCRVDVFTNLGYRAFSLSF | Log (Fold Change) | -0.1051
